Field: pIC50. Provide a value for each of the compounds that follow.
- assay-target: BK2 receptor (Cavia porcellus)
- Construct: The distal portion of the ileum is removed and placed in ice cold homogenization buffer; from tissue; host or cells: distal ileum of adult male Hartley strain guinea pig, washed 50,000×g pellet of homogenate
- test-details: competition with tritiated bradykinin (3H-BK) for BK2 receptor sites in guinea pig ileum
- Format: binding
- experimental-parameters: guinea pig ileum homogenate, 80 pM 3H-BK, 90 min, 25° C., pH 6.8; read-out: IC50
Give bare numbers, as −log10 of the molar value.

Recorded results for 5 compounds are shown here.
CCCC(=O)N(Cc1ccc(Nc2ccnc3cc(Cl)ccc23)cc1)C1CCN(CCCCCC(=O)N(CC)CC)CC1 [Example 14, hydrate] : 5.26
CCCCN1CCC(N(Cc2ccc(Nc3ccnc4cc(Cl)ccc34)cc2)C(=O)CCc2ccccc2)CC1.Cl [Example 5, hydrochloride] : 5.80
CCN(CC)C(=O)CCCCCN1CCC(NCc2ccc(Nc3ccnc4cc(Cl)ccc34)cc2)CC1 [Example 13, hydrate] : 5.41
CCCCCCCCCCCC(=O)N(Cc1ccc(Nc2ccnc3cc(Cl)ccc23)cc1)C1CCN(CCCCCC(=O)N(CC)CC)CC1.Cl [Example 16, hydrochloride] : 5.42
CCCC(=O)N(Cc1ccc(Nc2ccnc3cc(Cl)ccc23)cc1)C1CCN(Cc2ccc(C(=O)N(CC)CC)cc2)CC1 [Example 12, hydrate] : 5.57

Hey, can you go through the list below and give me pIC50 for every item?
1. CCN(CC)C(=O)c1ccc(CN2CCC(NCc3ccc(Nc4ccnc5cc(Cl)ccc45)cc3)CC2)cc1.Cl [Example 9, hydrochloride]
2. CCCCN1CCC(N(Cc2ccc(Nc3ccnc4cc(Cl)ccc34)cc2)C(=O)CCC)CC1.Cl [Example 8, hydrochloride]

Ans.
1: 6.11; 2: 5.92

* * *

- assay-target: BK2 receptor (Cavia porcellus, UniProt O70526)
- Construct: The distal portion of the ileum is removed and placed in ice cold homogenization buffer; from tissue; host or cells: distal ileum of adult male Hartley strain guinea pig, washed 50,000×g pellet of homogenate
- Sequence (O70526 whole entry): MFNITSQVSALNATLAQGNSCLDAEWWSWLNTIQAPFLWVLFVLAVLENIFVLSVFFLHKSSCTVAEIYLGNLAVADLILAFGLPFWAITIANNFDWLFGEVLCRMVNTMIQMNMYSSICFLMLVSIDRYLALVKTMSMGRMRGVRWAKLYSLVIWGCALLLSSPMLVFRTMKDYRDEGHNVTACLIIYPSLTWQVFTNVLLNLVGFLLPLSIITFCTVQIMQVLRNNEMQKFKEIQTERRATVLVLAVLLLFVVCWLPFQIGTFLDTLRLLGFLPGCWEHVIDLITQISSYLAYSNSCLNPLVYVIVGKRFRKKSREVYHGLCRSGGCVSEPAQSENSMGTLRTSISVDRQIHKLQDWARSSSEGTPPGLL
- test-details: competition with tritiated bradykinin (3H-BK) for BK2 receptor sites in guinea pig ileum
- Type: binding
endpoint-name: pIC50
Numbers only, as −log10 of the molar value.

Qu. I am curious: what pIC50 value has been reported for CCCCN1CCC(N(Cc2ccc(Nc3ccnc4cc(Cl)ccc34)cc2)C(=O)C(F)(F)C(F)(F)C(F)(F)F)CC1.Cl [Example 6, hydrochloride] ?
Ans. 5.37

* * *

- Test system: bradykinin-induced writhing response
- test-details: inhibition of the writhing response induced in mice by exogenous administration of bradykinin
- Format: in vivo, mice (male CD-1)
- experimental-parameters: 30 mg/kg i.p.; bradykinin 0.5 mg/kg i.p. after PGE2
endpoint-name: % Inhibition at 30 mg/kg i.p. (%)
Give bare numbers, in %.

CCCCN1CCC(N(Cc2ccc(Nc3ccnc4cc(Cl)ccc34)cc2)C(=O)C(F)(F)F)CC1.Cl : 44.0

Value sought for every listed compound: % Inhibition at 30 mg/kg i.p..
1. Clc1ccc2c(Nc3ccc(CNC4CCN(Cc5ccccc5)CC4)cc3)ccnc2c1
2. CCCC(=O)N(Cc1ccc(Nc2ccnc3cc(Cl)ccc23)cc1)C1CCN(Cc2ccc(C(=O)N(CC)CC)cc2)CC1 [Example 12, hydrate]
3. CCCC(=O)N(Cc1ccc(Nc2ccnc3cc(Cl)ccc23)cc1)C1CCN(CCCCCC(=O)N(CC)CC)CC1 [Example 14, hydrate]
4. CCN(CC)C(=O)CCCCCN1CCC(NCc2ccc(Nc3ccnc4cc(Cl)ccc34)cc2)CC1 [Example 13, hydrate]
5. CCCCN1CCC(N(Cc2ccc(Nc3ccnc4cc(Cl)ccc34)cc2)C(=O)CCC)CC1.Cl
6. CCCCN1CCC(NCc2ccc(Nc3ccnc4cc(Cl)ccc34)cc2)CC1
7. O=C(c1ccccc1)N1CCC(NCc2ccc(Nc3ccnc4cc(Cl)ccc34)cc2)CC1 [Example 15, hydrate]

Ans.
[2.5, 5, 81, 43, 80.0, 13.1, 43]

Qu. I'm curious: which % Inhibition at 30 mg/kg i.p. was measured for CCCCN1CCC(N(Cc2ccc(Nc3ccnc4cc(Cl)ccc34)cc2)C(=O)CCc2ccccc2)CC1.Cl tested on bradykinin-induced writhing response?
Ans. 85.0

* * *

- Test system: bradykinin-induced writhing response
- test-details: inhibition of the writhing response induced in mice by exogenous administration of bradykinin
- Format: in vivo, mice (male CD-1)
- experimental-parameters: 30 mg/kg i.p.; bradykinin 0.5 mg/kg i.p. after PGE2
Counter-ions that a name gives are not always drawn.
endpoint-name: % Inhibition at 30 mg/kg i.p. (%)
One number for each entry, in %.

CCCCCCCCCCCC(=O)N(Cc1ccc(Nc2ccnc3cc(Cl)ccc23)cc1)C1CCN(CCCCCC(=O)N(CC)CC)CC1.Cl [Example 16] : 30

Would you mind listing % Inhibition at 30 mg/kg i.p. for each of the following compounds?
1. CCCCN1CCC(N(Cc2ccc(Nc3ccnc4cc(Cl)ccc34)cc2)C(=O)c2ccccc2)CC1 [Example 4, hydrochloride]
2. CCCCN1CCC(N(Cc2ccc(Nc3ccnc4cc(Cl)ccc34)cc2)C(C)=O)CC1 [Example 2]

Ans.
1. 40.0
2. 51.0

Qu. Fill blank: measured % Inhibition at 30 mg/kg i.p. of the compound CCN(CC)C(=O)c1ccc(CN2CCC(NCc3ccc(Nc4ccnc5cc(Cl)ccc45)cc3)CC2)cc1.Cl [Example 9] is ____.
Ans. 0.0

* * *

- System: bradykinin-induced writhing response
- test-details: inhibition of the writhing response induced in mice by exogenous administration of bradykinin
- Format: in vivo, mice (male CD-1)
- experimental-parameters: 200 mg/kg p.o.; bradykinin 0.5 mg/kg i.p. after PGE2
endpoint-name: % Inhibition at 200 mg/kg p.o. (%)
Numbers only, in %.

As a guide, the following entries are already answered.
CCCCN1CCC(NCc2ccc(Nc3ccnc4cc(Cl)ccc34)cc2)CC1 : 7.1
CCCCN1CCC(N(Cc2ccc(Nc3ccnc4cc(Cl)ccc34)cc2)C(=O)CCC)CC1.Cl : 58.0
CCCCN1CCC(N(Cc2ccc(Nc3ccnc4cc(Cl)ccc34)cc2)C(C)=O)CC1 : 26.0
CCCC(=O)N(Cc1ccc(Nc2ccnc3cc(Cl)ccc23)cc1)C1CCN(CCCCCC(=O)N(CC)CC)CC1 [Example 14, hydrate] : 46

Qu. Look up % Inhibition at 200 mg/kg p.o.: CCCCN1CCC(N(Cc2ccc(Nc3ccnc4cc(Cl)ccc34)cc2)C(=O)CCc2ccccc2)CC1.Cl
Ans. 27.0

* * *

- assay-target: BK2 receptor (Cavia porcellus, UniProt O70526)
- Construct: The distal portion of the ileum is removed and placed in ice cold homogenization buffer; from tissue; host or cells: distal ileum of adult male Hartley strain guinea pig, washed 50,000×g pellet of homogenate
- test-details: competition with tritiated bradykinin (3H-BK) for BK2 receptor sites in guinea pig ileum
- Type: binding
- experimental-parameters: guinea pig ileum homogenate, 80 pM 3H-BK, 90 min, 25° C., pH 6.8; read-out: IC50
Where a name gives a salt, the structure may show the parent alone.
Lab note - cut at 8 µM for IC50: y if strictly below, n if not.

Sample answers from the record:
CCCCN1CCC(N(Cc2ccc(Nc3ccnc4cc(Cl)ccc34)cc2)C(=O)c2ccccc2)CC1 [Example 4, hydrochloride] : y
Clc1ccc2c(Nc3ccc(CNC4CCN(Cc5ccccc5)CC4)cc3)ccnc2c1 [Example 10] : y
CCCCN1CCC(NCc2ccc(Nc3ccnc4cc(Cl)ccc34)cc2)CC1 [Example 1] : n
CCCCN1CCC(N(Cc2ccc(Nc3ccnc4ccccc34)cc2)C(C)=O)CC1 [Example 3] : n
CCCCN1CCC(N(Cc2ccc(Nc3ccnc4cc(Cl)ccc34)cc2)C(C)=O)CC1 [Example 2] : y

Qu. Record CCCCN1CCC(N(Cc2ccc(Nc3ccnc4cc(Cl)ccc34)cc2)C(=O)C(F)(F)F)CC1.Cl [Example 7, hydrochloride] : is its IC50 strictly below 8 µM?
Ans. y

Qu. Below 8 µM on IC50? Entry O=C(c1ccccc1)N1CCC(NCc2ccc(Nc3ccnc4cc(Cl)ccc34)cc2)CC1 [Example 15, hydrate]
Ans. n

Just for reference, patent US5216165A is where these values come from.
